Tgt: Alpha-2A adrenergic receptor (Homo sapiens)
Sequence (P08913 whole entry): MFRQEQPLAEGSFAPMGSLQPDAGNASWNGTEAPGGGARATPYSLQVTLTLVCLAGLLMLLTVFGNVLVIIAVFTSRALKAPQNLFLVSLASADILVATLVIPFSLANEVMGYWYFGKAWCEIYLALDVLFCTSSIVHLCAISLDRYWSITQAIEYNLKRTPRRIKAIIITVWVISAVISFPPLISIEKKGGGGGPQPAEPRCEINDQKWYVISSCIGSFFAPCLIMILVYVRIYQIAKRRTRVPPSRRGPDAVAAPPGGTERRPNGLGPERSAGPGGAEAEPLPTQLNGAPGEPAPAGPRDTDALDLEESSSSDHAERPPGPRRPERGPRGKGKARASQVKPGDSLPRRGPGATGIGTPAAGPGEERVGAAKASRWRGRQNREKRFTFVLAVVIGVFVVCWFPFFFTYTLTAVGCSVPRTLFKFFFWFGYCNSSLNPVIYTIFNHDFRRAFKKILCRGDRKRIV
Format: functional, cell-based
Outcome measure: AC50

O=C1C(CC[S+]([O-])c2ccccc2)C(=O)N(c2ccccc2)N1c1ccccc1 (stereo not given) | > 30 µM

As a next step, examine the compound that follows.
Item: COc1ccc(CC2c3cc(OC)c(OC)cc3CC[N+]2(C)CCC(=O)OCCCCCOC(=O)CC[N+]2(C)CCc3cc(OC)c(OC)cc3C2Cc2ccc(OC)c(OC)c2)cc1OC (stereo not given) | AC50: 3.6 µM

###

This document collects AC50 values reported for Endothelin receptor type B (Homo sapiens).

CC(=O)OCC(=O)[C@@]1(O)[C@H](C)C[C@H]2[C@@H]3CCC4=CC(=O)C=C[C@]4(C)[C@@]3(F)[C@@H](O)C[C@@]21C [DEXAMETHASONE ACETATE] | > 30 µM
CC(C)NCC(O)c1ccc(O)c(O)c1 (stereo not drawn) | > 30 µM
CC(C)COCC(CN(Cc1ccccc1)c1ccccc1)N1CCCC1 (stereo not drawn) | > 30 µM
Cc1onc(-c2ccccc2)c1-c1ccc(S(N)(=O)=O)cc1 | > 30 µM
CCCN(CCC)C(=O)Cc1c(-c2ccc(Cl)cc2)nc2ccc(Cl)cn12 | > 10 µM

Sample C[C@H]1c2cccc(O)c2C(=O)C2=C(O)[C@]3(O)C(=O)C(C(N)=O)=C(O)[C@@H](N(C)C)[C@@H]3[C@@H](O)[C@@H]21 , system: Endothelin receptor type B (Homo sapiens). Its AC50 is > 30 µM

Sample Cn1c(=O)cc(N2CCC[C@@H](N)C2)n(Cc2ccccc2C#N)c1=O , system: Endothelin receptor type B (Homo sapiens). Its AC50 is > 30 µM

Sample CC(C)Cc1ccc(C(C)C(=O)O)cc1 (stereo not drawn) , system: Endothelin receptor type B (Homo sapiens). Its AC50 is > 30 µM

Sample Nc1ccc(S(=O)(=O)Nc2nccs2)cc1 , system: Endothelin receptor type B (Homo sapiens). Its AC50 is > 30 µM

Sample O=C(O)c1cn(C2CC2)c2cc(N3CCNCC3)c(F)cc2c1=O , system: Endothelin receptor type B (Homo sapiens). Its AC50 is > 30 µM

Sample Cc1cnc(C(=O)NCCc2ccc(S(=O)(=O)NC(=O)NC3CCCCC3)cc2)cn1 [GLIPIZIDE] , system: Endothelin receptor type B (Homo sapiens). Its AC50 is > 30 µM

###

This document collects AC50 values reported for UniProtKB Q9Y5N1.
Sequence (Q9Y5N1 whole entry): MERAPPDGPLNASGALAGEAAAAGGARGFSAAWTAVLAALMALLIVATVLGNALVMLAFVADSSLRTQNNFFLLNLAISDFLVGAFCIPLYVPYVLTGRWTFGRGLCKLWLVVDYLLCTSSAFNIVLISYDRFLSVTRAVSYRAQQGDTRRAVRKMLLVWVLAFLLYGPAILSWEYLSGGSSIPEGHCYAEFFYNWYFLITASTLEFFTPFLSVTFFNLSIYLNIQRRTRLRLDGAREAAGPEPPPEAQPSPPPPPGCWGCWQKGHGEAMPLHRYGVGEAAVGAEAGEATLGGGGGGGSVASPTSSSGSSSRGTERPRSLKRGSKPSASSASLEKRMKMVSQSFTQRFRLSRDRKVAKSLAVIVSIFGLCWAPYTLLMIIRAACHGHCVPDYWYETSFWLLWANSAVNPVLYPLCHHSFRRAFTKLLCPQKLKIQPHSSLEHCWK

CC(C)N(CCC(C(N)=O)(c1ccccc1)c1ccccn1)C(C)C (centres undefined) [DISOPYRAMIDE] | > 30 µM
CC1(C)S[C@@H]2[C@H](NC(=O)[C@H](N)c3ccccc3)C(=O)N2[C@H]1C(=O)OCOC(=O)[C@@H]1N2C(=O)C[C@H]2S(=O)(=O)C1(C)C | > 30 µM
COc1cc2c(cc1OC)C(CCc1ccc(Cl)cc1)N(C)CC2 (centres undefined) | > 30 µM
Nc1ccc(S(=O)(=O)Nc2nccs2)cc1 | > 10 µM
COCC1=C(C(=O)O)N2C(=O)[C@@H](NC(=O)/C(=N\OC)c3csc(N)n3)[C@H]2SC1 | > 30 µM
Cc1noc(NS(=O)(=O)c2ccc(N)cc2)c1C | > 10 µM
O=C1CCc2cc(OCCCCc3nnnn3C3CCCCC3)ccc2N1 | > 30 µM
C=C[C@H]1C[N@@]2CC[C@H]1C[C@@H]2[C@@H](O)c1ccnc2ccc(OC)cc12 | > 10 µM

Sample CC(C)c1nc(N(C)S(C)(=O)=O)nc(-c2ccc(F)cc2)c1/C=C/[C@@H](O)C[C@@H](O)CC(=O)O , system: UniProtKB Q9Y5N1. Its AC50 is > 30 µM

###

Tgt: Alpha-2A adrenergic receptor (Homo sapiens)
Outcome measure: AC50

Some compounds with recorded AC50:
OC[C@H]1O[C@@](CO)(O[C@H]2O[C@H](CO)[C@@H](O)[C@H](O)[C@H]2O)[C@@H](O)[C@@H]1O | > 30 µM
CC(C)C[C@H](NC(=O)CNC(=O)c1cc(Cl)ccc1Cl)B(O)O | > 30 µM
CN(CC1(C)CCCO1)S(=O)(=O)c1ccc(Cl)c(S(N)(=O)=O)c1 (stereo not drawn) [MEFRUSIDE] | > 30 µM
COc1cc2nc(N3CCN(C(=O)C4CCCO4)CC3)nc(N)c2cc1OC (stereo not drawn) | 11.8 µM
CC(C)Cc1ccc(C(C)C(=O)O)cc1 (stereo not drawn) | > 30 µM
CC(=O)O[C@]1(C(C)=O)CC[C@H]2[C@@H]3C=C(Cl)C4=CC(=O)CC[C@]4(C)[C@H]3CC[C@@]21C [CHLORMADINONE ACETATE] | > 30 µM
C#C[C@]1(O)CC[C@H]2[C@@H]3CCC4=CC(=O)CC[C@@H]4[C@H]3C(=C)C[C@@]21CC | > 30 µM

As a next step, examine the compound that follows.
Item: COc1ccc(CN(CCN(C)C)c2ccccn2)cc1 | AC50: 7.07 µM

###

This document collects AC50 values reported for Sodium-dependent noradrenaline transporter (Homo sapiens, UniProt P23975).

Some compounds with recorded AC50:
C=CCNc1nc(NCC=C)nc(N2CCN(C(c3ccc(F)cc3)c3ccc(F)cc3)CC2)n1 [ALMITRINE] | > 30 µM
CCCN[C@H]1CCc2nc(N)sc2C1 [PRAMIPEXOLE] | > 30 µM
CNCc1ccc(-c2[nH]c3cc(F)cc4c3c2CCNC4=O)cc1 [RUCAPARIB] | 20.7 µM
Nc1ccc(S(=O)(=O)Nc2nccs2)cc1 [SULFATHIAZOLE] | > 10 µM
Cc1cc2cc3c(C)cc(=O)oc3c(C)c2o1 [TRIOXSALEN] | > 10 µM
CCOC(=O)C1=C(C)NC(C)=C(C(=O)OC)C1c1cccc([N+](=O)[O-])c1 (stereo not given) [NITRENDIPINE] | > 30 µM

Sample CCC(COC(=O)c1cc(OC)c(OC)c(OC)c1)(c1ccccc1)N(C)C (stereo not given) [TRIMEBUTINE] , system: Sodium-dependent noradrenaline transporter (Homo sapiens, UniProt P23975). Its AC50 is > 30 µM

###

Tgt: 5-hydroxytryptamine receptor 7 (Homo sapiens)
Sequence (P34969 whole entry): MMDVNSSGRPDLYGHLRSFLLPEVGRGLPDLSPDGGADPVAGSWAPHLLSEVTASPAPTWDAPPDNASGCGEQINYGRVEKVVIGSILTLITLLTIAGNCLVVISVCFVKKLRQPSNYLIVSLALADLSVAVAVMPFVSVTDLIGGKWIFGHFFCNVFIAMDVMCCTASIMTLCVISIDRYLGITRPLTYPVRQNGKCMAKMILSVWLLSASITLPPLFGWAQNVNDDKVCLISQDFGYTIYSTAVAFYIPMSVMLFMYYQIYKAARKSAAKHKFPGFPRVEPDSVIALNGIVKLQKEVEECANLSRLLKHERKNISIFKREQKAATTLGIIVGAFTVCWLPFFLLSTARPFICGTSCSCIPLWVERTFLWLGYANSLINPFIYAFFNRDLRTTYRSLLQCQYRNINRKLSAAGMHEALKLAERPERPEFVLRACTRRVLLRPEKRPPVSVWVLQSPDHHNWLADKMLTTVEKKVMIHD
AC50 values for the molecules below.

Some molecules with recorded AC50:
Cc1cnc(C(=O)NCCc2ccc(S(=O)(=O)NC(=O)NC3CCCCC3)cc2)cn1 [GLIPIZIDE] | > 10 µM
CCCN(CCC)C(=O)Cc1c(-c2ccc(Cl)cc2)nc2ccc(Cl)cn12 | > 10 µM
OC1(c2ccc(Cl)cc2)c2ccccc2C2=NCCN21 (stereo not given) | > 10 µM
N[C@@H](CC(=O)N1CCn2c(nnc2C(F)(F)F)C1)Cc1cc(F)c(F)cc1F | > 10 µM

Item: CCCC(CCC)C(=O)O | AC50: > 10 µM

###

This document collects AC50 values reported for Histamine H1 receptor (Homo sapiens).

CN(C)CCCNc1c2ccccc2nc2cccc([N+](=O)[O-])c12 | 14 µM
CN(C)CCc1c[nH]c2ccc(Cn3cncn3)cc12 | 5.79 µM
CC(C)(C)C(=O)OCC(=O)[C@H]1CC[C@H]2[C@@H]3CCC4=CC(=O)CC[C@]4(C)[C@H]3CC[C@]12C [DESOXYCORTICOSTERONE PIVALATE] | > 10 µM
C#C[C@]1(OC(C)=O)CC[C@H]2[C@@H]3CCC4=C/C(=N/O)CC[C@@H]4[C@H]3CC[C@@]21CC [NORGESTIMATE] | > 30 µM
CC(N)C(O)c1ccccc1 (stereo not drawn) | > 10 µM
Nc1ncn([C@H]2C[C@H](O)[C@@H](CO)O2)c(=O)n1 | > 30 µM
C[C@]12CCC(=O)C(O)=C1CC[C@@H]1[C@@H]2CC[C@]2(C)C(=O)CC[C@@H]12 | > 30 µM

As a next step, examine the compound that follows.
Sample C=C1/C(=C\C=C2/CCC[C@]3(C)[C@@H]([C@H](C)/C=C/[C@@H](O)C4CC4)CC[C@@H]23)C[C@@H](O)C[C@@H]1O , system: Histamine H1 receptor (Homo sapiens). Its AC50 is > 30 µM

###

AC50 values for the compounds below.
Tgt: Adenosine receptor A3 (Homo sapiens, UniProt P0DMS8)
Sequence (P0DMS8 whole entry): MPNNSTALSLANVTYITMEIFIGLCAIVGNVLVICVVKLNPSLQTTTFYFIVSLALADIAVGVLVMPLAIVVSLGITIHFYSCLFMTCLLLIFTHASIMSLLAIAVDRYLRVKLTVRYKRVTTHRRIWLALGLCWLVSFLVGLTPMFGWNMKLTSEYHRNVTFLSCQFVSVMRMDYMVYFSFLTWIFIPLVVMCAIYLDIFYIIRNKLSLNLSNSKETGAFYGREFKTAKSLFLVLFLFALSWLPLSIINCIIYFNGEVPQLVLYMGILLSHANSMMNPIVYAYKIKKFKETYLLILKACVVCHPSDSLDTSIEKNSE

CC(C)[C@H](N)C(=O)OCC(CO)OCn1cnc2c(=O)nc(N)[nH]c21 (stereo not given in full) | > 30 µM
CC(S)C(=O)NCC(=O)O (stereo not given) | > 30 µM
CC(C(=O)O)c1ccc(CC2CCCC2=O)cc1 (stereo not given) | > 30 µM
COc1ccccc1OCCNCC(O)COc1cccc2[nH]c3ccccc3c12 (stereo not given) | 18.6 µM

As a next step, examine the compound that follows.
Item: COc1ccccc1Oc1c(NS(=O)(=O)c2ccc(C(C)(C)C)cc2)nc(-c2ncccn2)nc1OCCO | AC50: > 30 µM
